tested on: MOLT-4 leukemia; assay: NCI-60 one-dose screen, 48 h; conditions: 10 µM unless noted
Compounds without any hit were thinned out: in the full panel of roughly 83,000, 20% have a hit. Active and inactive are the calls of the source. Rule for the calls: active = growth percent below 10; inactive = the rest.
Respond using exactly one of the listed classes: active, inactive

Below, 8 compounds whose answers are already recorded.
                              line_notation  label_class
0  Cn1cc(-c2csc(-c3c[nH]c4ccc(Br)cc34)n2)c2cnccc21       active
1  C/C(=N\NC(=O)c1ccccc1O)c1cccc(/C(C)=N/NC(=O)c2ccccc2O)n1     inactive
2  OB(O)c1cccc(-c2nc3ccc4[nH]ncc4c3c3c2CCCC3)c1     inactive
3  O=C(NCc1ccccc1)Nc1ccccc1CNc1nc(Nc2ccc(OCCN3CCCC3)cc2)ncc1Cl     inactive
4  O=[N+]([O-])c1ccc(N/N=C(/C(=N/Nc2ccc([N+](=O)[O-])cc2)c2ccccc2)c2ccccc2)cc1     inactive
5  O=C(NNc1nccc(Nc2ccc(S(=O)(=O)Nc3ccncc3)cc2)n1)c1ccccc1     inactive
6  O=C(OCc1ccc2cccc(O)c2n1)N1CCN(C(=O)c2cc3cc(F)ccc3[nH]2)CC1       active
7  CN(CCn1sc(=O)n(Cc2ccccc2)c1=O)Cc1ccc2c(Cl)cc(Cl)c(O)c2n1     inactive

Next:
-- ask Fill in: this test's call for `CCOC(=O)/C=C1\S/C(=N\Nc2cc(=O)[nH]c3ccc(Cl)cc23)N(c2ccccc2)C1=O` is ___
-- reply inactive
